Here, each record is paired with measured pIC50 data.
Tested on: OCI-LY10
Experiment: CTG Cell Viability Assay - OCI-LY10
Format: cell-based, human
Conditions: Homo sapiens, OCI-Ly10, 96 h, OCI-LY10, 4 days; read-out: CTG Cell Viability Assay - OCI-LY10: Average external-IC50
pIC50: −log10 of the molar value.
reported_metric: pIC50

{"compound": "Cn1c(=O)n(C2CCC(=O)NC2=O)c2cccc(CCCC3CCN(C[C@H]4CC[C@H](n5cc(NC(=O)c6cnn7ccc(N8CCOC(C)(C)C8)nc67)c(C(F)F)n5)CC4)CC3)c21 (stereo partly drawn)", "reported_metric": "pIC50", "reported_result": "< 6.00"}
{"compound": "CN(C[C@H]1CC[C@H](n2cc(NC(=O)c3cnn4ccc(N5CCOCC5)nc34)c(C(F)F)n2)CC1)C1CCN(CCc2cccc3c2n(C)c(=O)n3C2CCC(=O)NC2=O)CC1 (stereo partly drawn)", "reported_metric": "pIC50", "reported_result": "> 7.30"}
{"compound": "O=C1CCC(N2C[C@H](c3ccc(C#CCN4CCO[C@@H](CNC[C@H]5CC[C@H](n6cc(NC(=O)c7coc(-c8ccnc(NCC9CC9)c8)n7)c(C(F)F)n6)CC5)C4)cc3)OC2=O)C(=O)N1 (stereo partly drawn)", "reported_metric": "pIC50", "reported_result": "> 7.30"}
